Test system: U-251
Test: Antiproliferative activity against human U251 cells after 48 hrs by sulforhodamine B assay
Assay type: functional
Settings: U-251, 48 h
Label key: Satisfied means GI50 under 8 µg/mL; Not satisfied means GI50 of 8 µg/mL or more.

In [3]: df
Out[3]:
                                  mol_smiles          group
 0  CCCCCCCC/C=C\CCCCCCCC(=O)N[C@@H](C)c1ccccc1      Satisfied
 1      CCCCC/C=C\C/C=C\CCCCCCCC(=O)N1CCCCC1  Not satisfied
 2  CCCCCC[C@@H](O)C/C=C\CCCCCCCC(=O)N1CCCCC1  Not satisfied
 3  CCCCC/C=C\C/C=C\CCCCCCCC(=O)N[C@@H](C)c1ccccc1      Satisfied
 4              CCCCCCCCCCCCCCCC(=O)N1CCOCC1  Not satisfied
 5   CCCCCCCCCCCCCCCCCC(=O)N[C@H](C)c1ccccc1  Not satisfied
 6  CCCCCC[C@@H](O)C/C=C\CCCCCCCC(=O)N1CCCC1      Satisfied
 7               CCCCCCCCCCCCCCCC(=O)N1CCCC1      Satisfied
 8            CCCCCCCCCCCCCCCCCC(=O)N1CCOCC1  Not satisfied
 9         CCCCCCCC/C=C\CCCCCCCC(=O)N1CCCCC1      Satisfied
10          CCCCCCCC/C=C\CCCCCCCC(=O)N1CCCC1      Satisfied

---

Assay: Antiproliferative activity against human PC3 cells after 48 hrs by sulforhodamine B assay
Format: functional
Conditions: PC-3, 48 h
measure.name: GI50 (µg/mL)

>>> df
                                    molecule  measure_name  observed_value
 0  CCCCCCCC/C=C\CCCCCCCC(=O)N[C@@H](C)c1ccccc1          GI50            13.7
 1  CCCCCCCC/C=C\CCCCCCCC(=O)NCCO [OLEOYLETHANOLAMIDE]          GI50            16.9
 2               CCCCCCCCCCCCCCCC(=O)N1CCCC1          GI50             4.7
 3         CCCCCCCC/C=C\CCCCCCCC(=O)N1CCOCC1          GI50             5.2
 4  CCCCC/C=C\C/C=C\CCCCCCCC(=O)N[C@@H](C)c1ccccc1          GI50             6.8
 5      CCCCC/C=C\C/C=C\CCCCCCCC(=O)N1CCCCC1          GI50            53.6
 6  CCCCCC[C@@H](O)C/C=C\CCCCCCCC(=O)N1CCOCC1          GI50            38.5
 7  CCCCCC[C@@H](O)C/C=C\CCCCCCCC(=O)N1CCCC1          GI50             6.2
 8          CCCCCCCC/C=C\CCCCCCCC(=O)N1CCCC1          GI50              13
 9     CCCCCC[C@@H](O)C/C=C\CCCCCCCC(=O)NCCO          GI50             6.3
10  CCCCCC[C@@H](O)C/C=C\CCCCCCCC(=O)N1CCCCC1          GI50            23.3

---

System: U-251
Assay: Antiproliferative activity against human U251 cells assessed as tumor growth inhibition after 48 hrs by sulforhodamine B assay
Type: functional
Conditions: U-251, 48 h
TGI for assorted compounds
measure.name: TGI (µg/mL)

                                 mol_smiles  operator  observed_value
0         CCCCCCCC/C=C\CCCCCCCC(=O)N1CCOCC1         =             6.6
1  CCCCCC[C@@H](O)C/C=C\CCCCCCCC(=O)N1CCCCC1         =             6.3
2  CCCCCC[C@@H](O)C/C=C\CCCCCCCC(=O)N1CCOCC1         =            54.5
3            CCCCCCCCCCCCCCCC(=O)NCc1ccccc1         >             250
4   CCCCCCCCCCCCCCCCCC(=O)N[C@H](C)c1ccccc1         >             250
5             CCCCCCCCCCCCCCCCCC(=O)N1CCCC1         =            32.5

---

System: U-251
Experiment: Antiproliferative activity against human U251 cells assessed as tumor growth inhibition after 48 hrs by sulforhodamine B assay
Type: functional
Details: U-251, 48 h
Label key: MET means TGI under 5 µg/mL; NOT MET means TGI of 5 µg/mL or more.

>>> df
                                   compound    group
0              CCCCCCCCCCCCCCCC(=O)N1CCOCC1  NOT MET
1  COc1cccc2c1C(=O)c1c(O)c3c(c(O)c1C2=O)C[C@@](O)(C(=O)CO)C[C@@H]3O[C@H]1C[C@H](N)[C@H](O)[C@H](C)O1 [DOXORUBICIN]      MET
2  CCCCCC[C@@H](O)C/C=C\CCCCCCCC(=O)N1CCCC1      MET
3  CCCCCCCC/C=C\CCCCCCCC(=O)N[C@H](C)c1ccccc1  NOT MET
4  CCCCCCCC/C=C/CCCCCCCC(=O)N[C@@H](C)c1ccccc1  NOT MET
5               CCCCCCCCCCCCCCCC(=O)N1CCCC1  NOT MET
6  CCCCCCCCCCCCCCCCCC(=O)N[C@@H](C)c1ccccc1  NOT MET
7  CCCCCC[C@@H](O)C/C=C\CCCCCCCC(=O)NCc1ccccc1  NOT MET
8      CCCCCCCCCCCCCCCC(=O)NCCO [PALMIDROL]  NOT MET

---

Test: Antiproliferative activity against human PC3 cells after 48 hrs by sulforhodamine B assay
Type: functional
Conditions: PC-3, 48 h
measure.name: GI50 (µg/mL)

>>> df
                                   compound  measure_name  observed_value
0  CCCCCC[C@@H](O)C/C=C\CCCCCCCC(=O)NCc1ccccc1          GI50             123
1            CCCCCCCCCCCCCCCCCC(=O)N1CCOCC1          GI50            41.1
2              CCCCCCCCCCCCCCCC(=O)N1CCOCC1          GI50            22.2
3  CCCCCC[C@@H](O)C/C=C\CCCCCCCC(=O)N[C@@H](C)c1ccccc1          GI50            11.7
4       CCCCC/C=C\C/C=C\CCCCCCCC(=O)N1CCCC1          GI50             4.7
5  CCCCCCCCCCCCCCCCCC(=O)NCCO [N-(2-HYDROXYETHYL)STEARAMIDE]          GI50            75.6
6  CCCCCCCC/C=C\CCCCCCCC(=O)N[C@H](C)c1ccccc1          GI50            46.9
7       CCCCCCCC/C=C\CCCCCCCC(=O)NCc1ccccc1          GI50             107
8         CCCCCCCC/C=C\CCCCCCCC(=O)N1CCCCC1          GI50             8.7
9             CCCCCCCCCCCCCCCCCC(=O)N1CCCC1          GI50             9.4

---

System: Vero
Assay: Cytotoxicity against african green monkey Vero cells after 48 hrs by sulforhodamine B assay
Type: cell-based
Settings: chlorocebus sabaeus
Label key: True means LC50 under 4 µg/mL; False means LC50 of 4 µg/mL or more.

In [3]: df
Out[3]:
                                 mol_smiles  group
0     CCCCCC[C@@H](O)C/C=C\CCCCCCCC(=O)NCCO   True
1  CCCCCCCC/C=C\CCCCCCCC(=O)N[C@H](C)c1ccccc1  False
2       CCCCC/C=C\C/C=C\CCCCCCCC(=O)N1CCCC1  False

---

Experiment: Antiproliferative activity against human PC3 cells assessed as tumor growth inhibition after 48 hrs by sulforhodamine B assay
Format: functional
Settings: PC-3, 48 h
measure.name: TGI

>>> df
                                    compound  observed_value
 0         CCCCCCCC/C=C\CCCCCCCC(=O)N1CCCCC1      31.8 µg/mL
 1               CCCCCCCCCCCCCCCC(=O)N1CCCC1      12.2 µg/mL
 2              CCCCCCCCCCCCCCCC(=O)N1CCOCC1      36.7 µg/mL
 3             CCCCCCCCCCCCCCCCCC(=O)N1CCCC1        36 µg/mL
 4  CCCCCCCC/C=C\CCCCCCCC(=O)NCCO [OLEOYLETHANOLAMIDE]      44.2 µg/mL
 5         CCCCCCCC/C=C\CCCCCCCC(=O)N1CCOCC1      14.8 µg/mL
 6  CCCCCC[C@@H](O)C/C=C\CCCCCCCC(=O)N[C@@H](C)c1ccccc1       142 µg/mL
 7  CCCCCCCCCCCCCCCCCC(=O)N[C@@H](C)c1ccccc1     > 250 µg/mL
 8  CCCCCCCC/C=C\CCCCCCCC(=O)N[C@@H](C)c1ccccc1      47.1 µg/mL
 9  CCCCCCCC/C=C/CCCCCCCC(=O)N[C@@H](C)c1ccccc1     > 250 µg/mL
10  CCCCCC[C@@H](O)C/C=C\CCCCCCCC(=O)NCc1ccccc1       123 µg/mL
11      CCCCC/C=C\C/C=C\CCCCCCCC(=O)N1CCCCC1      48.9 µg/mL
12  CCCCC/C=C\C/C=C\CCCCCCCC(=O)N[C@@H](C)c1ccccc1       7.7 µg/mL
13       CCCCC/C=C\C/C=C\CCCCCCCC(=O)N1CCCC1      32.6 µg/mL
14  COc1cccc2c1C(=O)c1c(O)c3c(c(O)c1C2=O)C[C@@](O)(C(=O)CO)C[C@@H]3O[C@H]1C[C@H](N)[C@H](O)[C@H](C)O1 [DOXORUBICIN]      11.7 µg/mL
15  CCCCCC[C@@H](O)C/C=C\CCCCCCCC(=O)N1CCCCC1      16.6 µg/mL
16   CCCCCCCCCCCCCCCCCC(=O)N[C@H](C)c1ccccc1     > 250 µg/mL
17      CCCCCCCCCCCCCCCC(=O)NCCO [PALMIDROL]     > 250 µg/mL
18  CCCCCCCC/C=C\CCCCCCCC(=O)N[C@H](C)c1ccccc1       162 µg/mL
19       CCCCCCCC/C=C\CCCCCCCC(=O)NCc1ccccc1     > 250 µg/mL
20          CCCCCCCC/C=C\CCCCCCCC(=O)N1CCCC1      21.9 µg/mL
21  CCCCCCCCCCCCCCCCCC(=O)NCCO [N-(2-HYDROXYETHYL)STEARAMIDE]     > 250 µg/mL
22  CCCCCC[C@@H](O)C/C=C\CCCCCCCC(=O)N1CCCC1       4.3 µg/mL
23     CCCCCC[C@@H](O)C/C=C\CCCCCCCC(=O)NCCO      23.5 µg/mL
24  CCCCCC[C@@H](O)C/C=C\CCCCCCCC(=O)N1CCOCC1      72.6 µg/mL
25            CCCCCCCCCCCCCCCC(=O)NCc1ccccc1     > 250 µg/mL
26            CCCCCCCCCCCCCCCCCC(=O)N1CCOCC1       102 µg/mL
